Origin of measurements: patent US12473304B2

# assayed_system: human PAD4 (hPAD4) (Homo sapiens (Human), UniProt Q9UM07)
# Sequence (Q9UM07 whole entry): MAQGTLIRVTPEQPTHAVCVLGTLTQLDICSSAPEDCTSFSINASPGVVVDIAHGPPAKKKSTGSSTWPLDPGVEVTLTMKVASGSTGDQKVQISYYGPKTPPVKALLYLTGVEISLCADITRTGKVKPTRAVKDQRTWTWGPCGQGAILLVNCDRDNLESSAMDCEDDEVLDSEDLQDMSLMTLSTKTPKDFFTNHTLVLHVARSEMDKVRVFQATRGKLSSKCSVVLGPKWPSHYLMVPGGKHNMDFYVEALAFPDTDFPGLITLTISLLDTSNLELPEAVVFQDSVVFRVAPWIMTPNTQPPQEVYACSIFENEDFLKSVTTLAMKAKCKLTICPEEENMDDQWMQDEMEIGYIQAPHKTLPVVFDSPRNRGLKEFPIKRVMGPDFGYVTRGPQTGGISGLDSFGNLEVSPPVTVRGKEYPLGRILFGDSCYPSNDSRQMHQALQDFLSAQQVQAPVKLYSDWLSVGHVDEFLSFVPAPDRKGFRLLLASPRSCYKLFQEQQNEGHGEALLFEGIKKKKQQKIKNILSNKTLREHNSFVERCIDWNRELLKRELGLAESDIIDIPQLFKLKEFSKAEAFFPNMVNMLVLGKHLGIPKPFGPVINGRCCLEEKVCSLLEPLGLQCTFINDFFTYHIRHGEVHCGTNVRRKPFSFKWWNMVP
# method_description: RFMS Human PAD4 Functional Assay 1
# run_conditions: RFMS assay 1; 5 nM hPAD4, 250 μM BAEE substrate, 50 μM calcium, 37° C.
pIC50: −log10 of the molar value.
Returns y if the recorded pIC50 is greater than or equal to 7, and n otherwise.

INSERT INTO assay_data (compound, label) VALUES
  ('Cc1c(-c2cc3ccc(-c4cccc(O)c4F)nc3n2CC2CC2)nn2cc(C(=O)N3CC4CCC3[C@@H]4N)cc(F)c12 (stereo partly drawn) [Example 49]', 'y'),
  ('COC1CN(c2ccc3cc(-c4nn5cc(C(=O)N6CC7CCC6[C@@H]7N)cc(F)c5c4C)n(CC4CC4)c3c2)C1 (stereo partly drawn) [Example 296]', 'n'),
  ('COc1cc(-c2ccc3cc(-c4sc5cc(C(=O)N6CC7CCC6[C@@H]7N)cc(OC)c5c4C)n(CC4CC4)c3c2)ccn1 (stereo partly drawn) [Example 129]', 'n'),
  ('COc1cc(C(=O)N2C[C@H](N)C[C@@H](F)C2)cn2nc(-c3cc4ccc(-c5cccc(CNS(C)(=O)=O)c5)cc4n3CC3CC3)c(C)c12 [Example 211]', 'n'),
  ('Cc1c(-c2cc3ccc(C(C)(O)C(F)(F)F)cc3n2CC2CC2)nn2cc(C(=O)N3CC4CCC3[C@@H]4N)ccc12 (stereo partly drawn) [Example 101]', 'y'),
  ('Cc1c(-c2cc3cc(F)cc(C4CCN(C(=O)C5CCCCO5)CC4)c3n2CC2CC2)nn2cc(C(=O)N3CCC[C@@H](N)C3)ccc12 (mixture of isomers) [Example 508]', 'y'),
  ('COC(=O)N(C)C1CCN(c2ccc3cc(-c4nn5cc(C(=O)N6C[C@H](N)C[C@@H](F)C6)ccc5c4C)n(CC4CC4)c3n2)CC1 [Example 325]', 'n'),
  ('Cc1c(-c2cc3cccc(C4CCN(C(=O)[C@H]5CC[C@@H](O)CC5)CC4)c3n2CC2CC2)nn2cc(C(=O)N3CCC[C@@H](N)C3)ccc12 [Example 450]', 'y'),
  ('Cc1c(-c2cc3cccc(OCC4CNC(=O)C4)c3n2CC2CC2)nn2cc(C(=O)N3CCC[C@@H](N)C3)cc(F)c12 (single isomer, unassigned) [Example 566]', 'y');

* * *

Catalogue of log10(IC50) readings, one per entry.
# assayed_system: human PAD4 (hPAD4) (Homo sapiens (Human))
# method_description: RFMS Human PAD4 Functional Assay 1
# run_conditions: RFMS assay 1; 5 nM hPAD4, 250 μM BAEE substrate, 50 μM calcium, 37° C.
quantity_measured: log10(IC50) (log10 of the value in nM)

INSERT INTO assay_data (compound, value_measured) VALUES
  ('COc1cc(C(=O)N2CC3CCC2[C@@H]3N)cc2oc(-c3cc4ccc(-c5ccc6c(c5)CNC6=O)cc4n3CC3CC3)c(C)c12 (stereo partly shown) [Example 149]', 2.05),
  ('Cc1c(-c2cc3ccc(-c4ccn5c(C)nnc5c4)cc3n2CC2CC2)nn2cc(C(=O)N3CC4CCC3[C@@H]4N)cc(F)c12 (stereo partly shown) [Example 295]', 1.30),
  ('COc1cc(C(=O)N2CCC[C@@H](N)C2)cn2nc(-c3cc4ccc(N5CCC(N(C)S(C)(=O)=O)CC5)cc4n3CC3CC3)c(C)c12 [Example 254]', 2.51),
  ('COc1cc(C(=O)N2CC3CCC2[C@@H]3N)cn2nc(-c3cc4ccc(-c5ccc(O)c(F)c5)nc4n3CC3CC3)c(C)c12 (stereo partly shown) [Example 10]', 2.20),
  ('Cc1c(-c2cc3ccc(-c4ccn5c(C)nnc5c4)cc3n2CC2CC2)nn2cc(C(=O)N3CC4CCC3[C@@H]4N)cc(F)c12 (stereo partly shown) [Example 62]', 1.45),
  ('COc1cc(C(=O)N2CC3CCC2[C@@H]3N)cc2sc(-c3cc4ccc(-c5ccc6c(c5)CNC6=O)cc4n3CC3CC3)c(C)c12 (stereo partly shown) [Example 126]', 2.09),
  ('Cc1c(-c2cc3ccc(-c4ccc5[nH]ncc5c4)nc3n2CC2CC2)nn2cc(C(=O)N3CC4CCC3[C@@H]4N)ccc12 (stereo partly shown) [Example 300]', 2.00),
  ('Cc1c(-c2cc3ccccc3n2CC2CC2)oc2cc(C(=O)N3C[C@H](N)C[C@@H](F)C3)ccc12 [Example 194]', 3.26),
  ('CC(=O)N(C)C1CCN(c2ccc3cc(-c4nn5cc(C(=O)N6C[C@H](N)C[C@@H](F)C6)ccc5c4C)n(CC4CC4)c3c2)CC1 [Example 353]', 2.79),
  ('Cc1c(-c2cc3cccc(OCC4CC(=O)N(C)C4)c3n2CC2CC2)nn2cc(C(=O)N3CCC[C@@H](N)C3)ccc12 (single isomer, unassigned) [Example 578]', 2.28),
  ('COc1cc(C(=O)N2C[C@H](N)C[C@@H](F)C2)cc2sc(-c3cc4cccnc4n3CC3CC3)c(C)c12 [Example 138]', 2.40),
  ('COc1nc(C(=O)NC[C@H](F)CN)cn2nc(-c3cc4cccnc4n3CC3CC3)c(C)c12 [Example 117]', 4.18),
  ('Cc1c(-c2cc3cccc(C4CCN(C(=O)c5cccs5)CC4)c3n2CC2CC2)nn2cc(C(=O)N3CCC[C@@H](N)C3)ccc12 [Example 464]', 2.26);

* * *

Catalogue of IC50 readings, one per entry.
# assayed_system: human PAD4 (hPAD4) (Homo sapiens (Human))
# method_description: RFMS Human PAD4 Functional Assay 1
# run_conditions: RFMS assay 1; 5 nM hPAD4, 250 μM BAEE substrate, 50 μM calcium, 37° C.
quantity_measured: IC50 (nM)

INSERT INTO results (molecule, assayed_system, quantity_measured, value_measured) VALUES
  ('COc1cc(C(=O)N2C[C@H](N)C[C@@H](F)C2)cn2nc(-c3cc4ccc(-c5cc(F)c6[nH]c(=O)ccc6c5C)cc4n3CC3CC3)c(C)c12', 'human PAD4 (hPAD4) (Homo sapiens (Human))', 'IC50', 80),
  ('CO[C@H](C)C(=O)N1CC(c2cccc3cc(-c4nn5cc(C(=O)N6C[C@H](N)C[C@@H](F)C6)ccc5c4C)n(CC4CC4)c23)C1', 'human PAD4 (hPAD4) (Homo sapiens (Human))', 'IC50', 1100),
  ('Cc1c(-c2cc3cc(F)cc(C4CCN(C(=O)CC(C)C)CC4)c3n2CC2CC2)nn2cc(C(=O)N3C[C@H](N)C[C@@H](F)C3)ccc12', 'human PAD4 (hPAD4) (Homo sapiens (Human))', 'IC50', 330),
  ('COc1cc(C(=O)N2CC3CCC2[C@@H]3N)cn2nc(-c3cc4ccc(-c5ccc(OC(F)F)cc5)cc4n3CC3CC3)c(C)c12 (stereo partly drawn)', 'human PAD4 (hPAD4) (Homo sapiens (Human))', 'IC50', 449),
  ('Cc1c(-c2cc3cccc(C4CN(C(=O)C5CCCCO5)C4)c3n2CC2CC2)nn2cc(C(=O)N3C[C@H](N)C[C@@H](F)C3)ccc12 (mixture of isomers)', 'human PAD4 (hPAD4) (Homo sapiens (Human))', 'IC50', 1070),
  ('Cc1ccc2cc(-c3nn4cc(C(=O)N5C[C@H](N)C[C@@H](F)C5)ccc4c3C)n(CC3CC3)c2n1', 'human PAD4 (hPAD4) (Homo sapiens (Human))', 'IC50', 368),
  ('COc1cc(C(=O)N2CCC[C@@H](N)C2)cn2nc(-c3cc4ccnc(OCC5COC5)c4n3CC3CC3)c(C)c12', 'human PAD4 (hPAD4) (Homo sapiens (Human))', 'IC50', 7390),
  ('Cc1c(O)cccc1-c1ccc2cc(-c3nn4cc(C(=O)N5CC6CCC5[C@@H]6N)ccc4c3C)n(CC3CC3)c2n1 (stereo partly drawn)', 'human PAD4 (hPAD4) (Homo sapiens (Human))', 'IC50', 30),
  ('Cc1c(-c2cc3ccc(-c4ccc5c(c4)CNC5=O)cc3n2CC2CC2)oc2cc(C(=O)N3C[C@H](N)C[C@@H](F)C3)ccc12', 'human PAD4 (hPAD4) (Homo sapiens (Human))', 'IC50', 363),
  ('COc1cc(C(=O)N2CCC[C@@H](N)C2)cn2nc(-c3cc4ccc(-c5ccccc5CO)cc4n3CC3CC3)c(C)c12', 'human PAD4 (hPAD4) (Homo sapiens (Human))', 'IC50', 620),
  ('COc1cc(C(=O)N2C[C@H](N)C[C@@H](F)C2)cn2nc(-c3cc4ccc(-c5ccc(C(=O)N(C)C)cc5)cc4n3CC3CC3)c(C)c12', 'human PAD4 (hPAD4) (Homo sapiens (Human))', 'IC50', 260),
  ('COCC(=O)N1CC(c2cccc3cc(-c4nn5cc(C(=O)N6C[C@H](N)C[C@@H](F)C6)ccc5c4C)n(CC4CC4)c23)C1', 'human PAD4 (hPAD4) (Homo sapiens (Human))', 'IC50', 490),
  ('Cc1c(-c2ccc3cc(-c4nn5cc(C(=O)N6C[C@H](N)C[C@@H](F)C6)ccc5c4C)n(CC4CC4)c3n2)cc(F)c2[nH]c(=O)ccc12', 'human PAD4 (hPAD4) (Homo sapiens (Human))', 'IC50', 110),
  ('COc1cc(-c2ccc3cc(-c4nn5cc(C(=O)N6CC7CCC6[C@@H]7N)ccc5c4C)n(CC4CC4)c3n2)ccc1C(N)=O (stereo partly drawn)', 'human PAD4 (hPAD4) (Homo sapiens (Human))', 'IC50', 240),
  ('Cc1c(-c2cc3ccc(Cl)nc3n2CC2CC2)nn2cc(C(=O)N3C[C@H](N)C[C@@H](F)C3)cc(F)c12', 'human PAD4 (hPAD4) (Homo sapiens (Human))', 'IC50', 446),
  ('COc1cc(C(=O)N2C[C@H](N)C[C@@H](F)C2)cn2nc(-c3cc4cccc(C5CN(C(=O)[C@H](C)OC)C5)c4n3CC3CC3)c(C)c12', 'human PAD4 (hPAD4) (Homo sapiens (Human))', 'IC50', 280),
  ('COc1cc(C(=O)N2C[C@H](N)C[C@@H](F)C2)cn2nc(-c3cc4ccc(NC[C@@H](F)C(C)(C)O)cc4n3CC3CC3)c(C)c12', 'human PAD4 (hPAD4) (Homo sapiens (Human))', 'IC50', 782),
  ('COc1cc(C(=O)N2CC3CCC2[C@@H]3N)cc2oc(-c3cc4ccc(C)cc4n3CC3CC3)c(C)c12 (stereo partly drawn)', 'human PAD4 (hPAD4) (Homo sapiens (Human))', 'IC50', 325),
  ('COc1cc(C(=O)N2CCC[C@@H](N)C2)cn2nc(-c3cc4ccc(-c5ccc(C(N)=O)cc5)cc4n3CC3CC3)c(C)c12', 'human PAD4 (hPAD4) (Homo sapiens (Human))', 'IC50', 130),
  ('Cc1c(-c2cc3ccc(N4CCC(O)CC4)nc3n2CC2CC2)nn2cc(C(=O)N3CC4CCC3[C@@H]4N)ccc12 (stereo partly drawn)', 'human PAD4 (hPAD4) (Homo sapiens (Human))', 'IC50', 77),
  ('Cc1c(-c2cc3cccc(OCC4CC(=O)N(C)C4)c3n2CC2CC2)nn2cc(C(=O)N3CCC[C@@H](N)C3)ccc12 (single isomer, unassigned) [Example 576]', 'human PAD4 (hPAD4) (Homo sapiens (Human))', 'IC50', 190),
  ('COC1CN(c2ccc3cc(-c4oc5cc(C(=O)N6CC7CCC6[C@@H]7N)ccc5c4C)n(CC4CC4)c3c2)C1 (stereo partly drawn)', 'human PAD4 (hPAD4) (Homo sapiens (Human))', 'IC50', 58),
  ('Cc1c(-c2cc3cccc(C4CN(C(=O)[C@H]5CC[C@@H](O)CC5)C4)c3n2CC2CC2)nn2cc(C(=O)N3CCC[C@@H](N)C3)ccc12', 'human PAD4 (hPAD4) (Homo sapiens (Human))', 'IC50', 130),
  ('Cc1c(-c2cc3ccnc(OCC4CNC(=O)C4)c3n2CC2CC2)nn2cc(C(=O)N3CCC[C@@H](N)C3)ccc12 (single isomer, unassigned; isomer 2) [Example 619]', 'human PAD4 (hPAD4) (Homo sapiens (Human))', 'IC50', 40);
